Test system: MOLM-14 cells
assay overview: Proliferation assay (spheroid, day 8 confluence), MOLM-14
Type: cell-based
assay context: Homo sapiens, 8 days, read-out: spheroid assay_OneTime MOLM-14 IC50
pIC50: −log10 of the molar value. Where a name gives a salt, the structure may show the parent alone.

[
  {
    "compound": "CCN(C(=O)c1cc(F)ccc1Oc1nncnc1N1CCC2(C1)CN([C@H](CCCN(C)CCOC)C(C)C)C2)C(C)C [Compound A4, bis-besylate salt hydrate]",
    "pIC50": 8.10
  }
]
